# credit: patent US7687473B2

system: CCRF-CEM cells; assay: cells; assay type: cell-based, human; conditions: Homo sapiens, CCRF-CEM, 0-6 hr pulse exposure out of 120 hr, absence of Z; read-out: EC50
OBSERVED PROPERTY: pEC50
# pEC50: negative log10 of molar concentration; output just the value

In: Dear colleague, I am looking for the recorded pEC50 of the following compound: Nc1nc2[nH]cc(CCc3ccc(C(=O)N[C@@H](CCC(=O)O)C(=O)O)cc3)c2c(=O)[nH]1
Out: 6.52

---

test system: CCRF-CEM cells; assay: cells; type: cell-based, human; conditions: 120 hr exposure; read-out: EC50, growth inhibition
OBSERVED PROPERTY: EC50 (µM)
Reply with just the number (in µM).

In: Dear colleague, I am looking for the recorded EC50 of the following compound: NC(=O)c1ncn([C@@H]2O[C@H](CO)[C@@H](O)[C@H]2O)c1N [Z, 5-amino-4-imidazolecarboxamide riboside]
Out: 130

---

Provide the recorded pIC50 for the entries that follow.
biological target: reduced folate carrier (RFC) (Homo sapiens, UniProt P41440); construct: endogenous in cells; host or cells: CCRF-CEM (parental); assay: Inhibition of initial velocity of [3H]MTX influx by competitors; assay type: cell-based; settings: IC50, inhibition of initial velocity of [3H]MTX influx, +TMTX, 10 min pre-incubation with 1 μM TMTX alone (inhibition of the RFC)
The quantity pIC50 is defined as the negative base-10 logarithm of the molar concentration.

In: Dear colleague, I am looking for the recorded pIC50 of the following compound: Nc1nc2c(c(=O)[nH]1)N(C=O)[C@H](CNc1ccc(C(=O)N[C@@H](CCC(=O)O)C(=O)O)cc1)CN2 [(6R,S)-LV, [6R,S]-5-formyltetrahydrofolate]
Out: 5.59

In: I have this compound here, Nc1nc2ncc(CNc3ccc(C(=O)N[C@@H](CCC(=O)O)C(=O)O)cc3)nc2c(=O)[nH]1 [PteGlu, folic acid] , and I need its recorded pIC50.
Out: 4.73

In: I have this compound here, Cc1nc2ccc3ccc(CNc4ccc5c(c4)CN([C@@H](CCC(=O)O)C(=O)O)C5=O)cc3c2c(=O)[nH]1 [BW1843U89] , and I need its recorded pIC50.
Out: 6.00

---

system: CCRF-CEM cells; test: cells; format: cell-based, human; details: read-out: EC50 for growth inhibition
OBSERVED PROPERTY: pEC50
On this scale, pEC50 is minus log10 of a concentration expressed in M (mol/L).

In: Which measured pEC50 value corresponds to Cc1ccc2nc(N)[nH]c(=O)c2c1Sc1ccncc1 ?
Out: 6.22

---

tested on: CCRF-CEM cells; assay: cells; assay type: cell-based, human; conditions: Homo sapiens, CCRF-CEM, 0-16 hr pulse exposure out of 120 hr, 50 μM Z; read-out: EC50
OBSERVED PROPERTY: EC50

In: Would you kindly share the measured EC50 for Nc1nc2[nH]cc(CCc3ccc(C(=O)N[C@@H](CCC(=O)O)C(=O)O)cc3)c2c(=O)[nH]1 ?
Out: 0.103 µM

---

Target: reduced folate carrier (RFC) (Homo sapiens, UniProt P41440)
Construct: endogenous in cells; host or cells: CCRF-CEM (parental)
Sequence (P41440 1-591): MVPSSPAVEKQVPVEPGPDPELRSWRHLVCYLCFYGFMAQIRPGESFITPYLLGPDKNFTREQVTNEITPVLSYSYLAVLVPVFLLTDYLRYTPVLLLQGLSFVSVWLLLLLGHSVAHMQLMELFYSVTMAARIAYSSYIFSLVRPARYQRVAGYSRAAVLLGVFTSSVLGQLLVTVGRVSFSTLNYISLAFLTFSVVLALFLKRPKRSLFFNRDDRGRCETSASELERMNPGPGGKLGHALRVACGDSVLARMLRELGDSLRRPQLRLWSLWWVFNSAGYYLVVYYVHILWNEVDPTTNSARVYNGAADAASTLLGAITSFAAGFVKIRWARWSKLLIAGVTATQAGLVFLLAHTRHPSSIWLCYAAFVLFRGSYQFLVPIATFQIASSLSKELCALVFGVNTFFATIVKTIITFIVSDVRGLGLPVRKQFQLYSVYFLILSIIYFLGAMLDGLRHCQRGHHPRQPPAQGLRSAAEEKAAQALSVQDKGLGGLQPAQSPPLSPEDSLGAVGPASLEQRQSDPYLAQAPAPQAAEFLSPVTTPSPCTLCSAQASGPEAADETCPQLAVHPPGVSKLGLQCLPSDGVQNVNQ
Assay: Inhibition of initial velocity of [3H]MTX influx by competitors
Type: cell-based
Conditions: IC50, inhibition of initial velocity of [3H]MTX influx, +TMTX + Z, 10 min pre-incubation with 1 μM TMTX and 0.5 mM Z (Z potentiated influx)
OBSERVED PROPERTY: pIC50
To interpret pIC50, take it as minus log10 of a concentration measured in moles per litre.

In: Tell me reported pIC50 for Nc1nc2ncc(CNc3ccc(C(=O)N[C@@H](CCC(=O)O)C(=O)O)cc3)nc2c(=O)[nH]1 , tested with reduced folate carrier (RFC) (Homo sapiens, UniProt P41440).
Out: 4.73

In: Value wanted: pIC50 (reduced folate carrier (RFC) (Homo sapiens, UniProt P41440)) of entry Nc1nc2c(c(=O)[nH]1)N(C=O)[C@H](CNc1ccc(C(=O)N[C@@H](CCC(=O)O)C(=O)O)cc1)CN2 [(6R,S)-LV, [6R,S]-5-formyltetrahydrofolate]
Out: 5.57

In: Query for reduced folate carrier (RFC) (Homo sapiens, UniProt P41440): what pIC50 does the record show for Cc1nc2ccc3ccc(CNc4ccc5c(c4)CN([C@@H](CCC(=O)O)C(=O)O)C5=O)cc3c2c(=O)[nH]1 ?
Out: 5.89
